- assay-target: Pim-1 stably transfected into the U2OS human osteogenic sarcoma line (Homo sapiens)
- Construct: expressed in transfected cells; host or cells: U2OS human osteogenic sarcoma line
- Sequence (P11309 whole entry): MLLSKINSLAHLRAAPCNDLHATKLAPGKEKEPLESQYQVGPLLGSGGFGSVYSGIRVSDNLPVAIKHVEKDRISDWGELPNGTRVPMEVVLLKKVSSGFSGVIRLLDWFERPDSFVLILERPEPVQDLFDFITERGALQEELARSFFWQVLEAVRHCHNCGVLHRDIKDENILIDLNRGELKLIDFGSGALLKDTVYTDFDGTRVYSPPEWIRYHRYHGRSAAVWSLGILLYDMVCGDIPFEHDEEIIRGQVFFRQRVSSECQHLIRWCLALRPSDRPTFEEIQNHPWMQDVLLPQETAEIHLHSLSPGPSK
- protocol: Pim cell assay, phospho-BAD normalized against total BAD, U2OS stably transfected with Pim-1
- Format: cell-based
- condition-details: U2OS stably transfected with Pim-1; phospho-BAD normalized against total BAD; 29 min incubation; read-out: Pim1_Cell_IC50_
pIC50: −log10 of the molar value.
observed-property: pIC50

> print(dat)
                                   compound                              assay.target  observed.property  value.measured
1  N#Cc1ncccc1-c1ccc2[nH]cc(-c3cncc(O[C@@H]4CCCNC4)n3)c2c1  Pim-1 stably transfected into the U2OS human osteogenic sarcoma line (Homo sapiens)              pIC50            6.10
2  CC(C)Nc1cncc(-c2n[nH]c3ccc(-c4cncc(C5CC5)n4)cc23)n1  Pim-1 stably transfected into the U2OS human osteogenic sarcoma line (Homo sapiens)              pIC50            7.64
3  c1cc2[nH]nc(-c3cncc(OC4CCNCC45CC5)n3)c2cc1-c1cncc(C2CC2)n1 (stereo not shown)  Pim-1 stably transfected into the U2OS human osteogenic sarcoma line (Homo sapiens)              pIC50            6.70
4  COc1cncc(-c2n[nH]c3ccc(-c4cncc(C5CC5)n4)cc23)n1  Pim-1 stably transfected into the U2OS human osteogenic sarcoma line (Homo sapiens)              pIC50            6.18

---

- assay-target: full length recombinant Pim-2 protein (Homo sapiens, UniProt Q9P1W9)
- Construct: by full length recombinant Pim-1, Pim-2, or Pim-3 protein; hexahistidine tag followed by a thrombin cleavage site (N); made in house; host or cells: Sf9 (baculovirus) or E. coli (pET28)
- Sequence (Q9P1W9 whole entry): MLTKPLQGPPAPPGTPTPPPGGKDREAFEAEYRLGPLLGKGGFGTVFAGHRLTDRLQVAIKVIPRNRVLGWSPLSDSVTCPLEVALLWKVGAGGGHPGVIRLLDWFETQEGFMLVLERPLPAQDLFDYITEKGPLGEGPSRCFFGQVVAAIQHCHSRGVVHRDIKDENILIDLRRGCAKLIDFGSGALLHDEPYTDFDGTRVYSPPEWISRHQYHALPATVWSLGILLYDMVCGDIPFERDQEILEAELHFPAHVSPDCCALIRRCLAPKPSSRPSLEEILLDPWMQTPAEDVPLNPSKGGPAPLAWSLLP
- protocol: Pim-2 enzyme assay (HTRF, phosphorylation of biotinylated-BAD (S112) peptide)
- Assay type: biochemical
- condition-details: enzyme assay, Pim-2; read-out: Pim2_IC50
observed-property: IC50 (µM)

> print(dat)
                                   compound  value.measured
1  CN(c1cncc(-c2n[nH]c3ccc(-c4c(F)cccc4F)cc23)n1)C1CCNCC1 [Example 17]           0.043
2  Brc1ccc2[nH]nc(-c3cncc(O[C@@H]4CCCNC4)n3)c2c1 [Example 135]           0.227
3  NC1CCN(c2cncc(-c3n[nH]c4ccc(N5CCOCC5)cc34)n2)CC1 [Example 89]           0.303
4  NC1CCN(c2cncc(-c3c[nH]c4ccc(-c5c(F)cccc5F)nc34)c2)CC1 [Example 32]           0.586

---

- assay-target: Pim-1 stably transfected into the U2OS human osteogenic sarcoma line (Homo sapiens)
- Construct: expressed in transfected cells; host or cells: U2OS human osteogenic sarcoma line
- protocol: Pim cell assay, phospho-BAD normalized against total BAD, U2OS stably transfected with Pim-1
- Format: cell-based
- condition-details: U2OS cells stably transfected with Pim-1, phospho-BAD; high dose […]; read-out: Pim1_Cell_IC50
- Description: The cell lines used in the assay were generated by the stable transfection of either Pim-1 or Pim-2 into the U2OS human osteogenic sarcoma line. […] These prepared lysates were then assayed for phospho and total BAD according to the manufacturer's protocols (Meso Scale Diagnostics, Cat# K15103C-3 & # K15103D-3). The plates were read on the MSD Sector Imager 6000, and results were calculated according to the assay protocols ((% Phosphoprotein=((2×Phospho signal)/(Phospho signal+Total signal))×100)).
pIC50: −log10 of the molar value.
Listed next: entries and their corresponding pIC50.
observed-property: pIC50

> print(dat)
                                smiles.code  observed.property  value.measured
1  Nc1cc(-c2ccc3[nH]nc(-c4cncc(N5CCC(N)CC5)n4)c3c2)ccn1              pIC50            5.90
2  CCNC(=O)c1ccc(F)c(-c2ccc3[nH]nc(-c4cncc(N5CCC(N)CC5)n4)c3c2)c1              pIC50            5.60
3  c1cc2[nH]nc(-c3cncc(O[C@@H]4CCCNC4)n3)c2cc1-c1cncc(C2CC2)n1              pIC50            7.39
4  NC1CCN(c2cncc(-c3n[nH]c4ccc(-c5cnc6[nH]ccc6c5)cc34)n2)CC1              pIC50            6.22

---

- assay-target: full length recombinant Pim-2 protein (Homo sapiens)
- Construct: by full length recombinant Pim-1, Pim-2, or Pim-3 protein; hexahistidine tag followed by a thrombin cleavage site (N); made in house; host or cells: Sf9 (baculovirus) or E. coli (pET28)
- protocol: Pim-2 enzyme assay (HTRF, phosphorylation of biotinylated-BAD (S112) peptide)
- Assay type: biochemical
- condition-details: enzyme assay, Pim-2; read-out: Pim2_IC50
// map IC50 onto a label; ranges 0: < 40 nM; 1: ≥ 40 nM and < 200 nM; 2: ≥ 200 nM

> print(dat)
                                 smiles.code  assigned.class
 1  N[C@@H]1CCCN(c2cncc(-c3c[nH]c4ccc(-c5c(F)cccc5F)cc34)n2)C1               1
 2  NC1CCN(c2cncc(-c3n[nH]c4ccc(-c5ccc6scnc6c5)cc34)n2)CC1               0
 3  CC(C)Oc1cncc(-c2ccc3[nH]cc(-c4csc(-n5ccccc5=O)n4)c3c2)n1               2
 4  Fc1cccc(F)c1-c1ccc2[nH]cc(-c3nccc(NC4CCNCC4)n3)c2c1               2
 5  CN1CCOc2cc(-c3ccc4[nH]nc(-c5cncc(N6CCC(N)CC6)n5)c4c3)cnc21               0
 6  NC1CCN(c2cncc(-c3n[nH]c4ccc(-c5cc(C(=O)NCc6ccccc6)ccc5F)cc34)n2)CC1               0
 7  COC(=O)c1ccc2[nH]cc(-c3cncc(N4CCC(N)CC4)n3)c2c1               1
 8  O=C(NC1CC1)c1cncc(-c2ccc3[nH]nc(-c4cncc(O[C@@H]5CCCNC5)n4)c3c2)c1               1
 9  c1ccc(-c2ccc3[nH]nc(-c4cncc(O[C@@H]5CCCNC5)n4)c3c2)cc1               0
10  CNc1nccc(-c2n[nH]c3ccc(-c4c(F)cccc4F)cc23)n1               2
11  N[C@H]1CCCN(c2cncc(-c3c[nH]c4ccc(-c5c(F)cccc5F)cc34)n2)C1               1
12  NC1CCN(c2cncc(-c3n[nH]c4ccc(-c5cncc(F)c5)cc34)n2)CC1               0
13  c1cnnc(-c2ccc3[nH]nc(-c4cncc(O[C@@H]5CCCNC5)n4)c3c2)c1               1
14  c1cc2[nH]nc(-c3cncc(O[C@@H]4CCCNC4)n3)c2cc1-c1cncc(C2CC2)n1               0
15  CC(C)Oc1cccc(-c2ccc3[nH]nc(-c4cncc(O[C@@H]5CCCNC5)n4)c3c2)n1               2
16  CC(C)Oc1cncc(-c2ccc3[nH]cc(-c4ccnc(N)c4)c3c2)n1               2

---

- assay-target: full length recombinant Pim-2 protein (Homo sapiens)
- Construct: by full length recombinant Pim-1, Pim-2, or Pim-3 protein; hexahistidine tag followed by a thrombin cleavage site (N); made in house; host or cells: Sf9 (baculovirus) or E. coli (pET28)
- protocol: Pim-2 enzyme assay (HTRF, phosphorylation of biotinylated-BAD (S112) peptide)
- Type: biochemical
- condition-details: read-out: Pim2_IC50
pIC50: −log10 of the molar value.
# binarize pIC50: threshold 7 inclusive, high side y, low side n

> print(dat)
                                    compound                              assay.target  assigned.class
 1  CC(C)Oc1cncc(-c2ccc3[nH]cc(-c4nnc(Nc5ccccc5)o4)c3c2)n1  full length recombinant Pim-2 protein (Homo sapiens)               n
 2  COC(=O)c1ccc2[nH]nc(-c3ccnc(O[C@@H]4CCCNC4)n3)c2c1  full length recombinant Pim-2 protein (Homo sapiens)               n
 3  NC(=O)c1ccc(F)c(-c2ccc3[nH]nc(-c4cncc(OCCF)n4)c3c2)c1  full length recombinant Pim-2 protein (Homo sapiens)               n
 4  O=C1COCCN1c1ccc2[nH]nc(-c3cncc(O[C@H]4CNCCC45CC5)n3)c2c1  full length recombinant Pim-2 protein (Homo sapiens)               n
 5  c1cc(OC2CCCC2)nc(-c2ccc3[nH]cc(-c4cncc(O[C@@H]5CCCNC5)n4)c3c2)c1  full length recombinant Pim-2 protein (Homo sapiens)               n
 6  Clc1cncc(-c2ccc3[nH]cc(-c4cncc(O[C@@H]5CCCNC5)n4)c3c2)c1  full length recombinant Pim-2 protein (Homo sapiens)               n
 7  CN(C)c1cc(=O)[nH]c(-c2c[nH]c3ccc(-c4c(F)cccc4F)cc23)n1  full length recombinant Pim-2 protein (Homo sapiens)               n
 8  c1cc2[nH]cc(-c3cncc(O[C@@H]4CCCNC4)n3)c2cc1-c1cnn(C2CC2)c1  full length recombinant Pim-2 protein (Homo sapiens)               y
 9  N#Cc1ccc2[nH]cc(-c3cncc(N[C@@H]4CCCNC4)n3)c2c1  full length recombinant Pim-2 protein (Homo sapiens)               n
10  CNC(=O)c1ccc2[nH]nc(-c3cncc(NC4CCNCC4)n3)c2c1  full length recombinant Pim-2 protein (Homo sapiens)               n
11  c1cc2[nH]nc(-c3cncc(O[C@H]4CCNCC45CC5)n3)c2cc1-c1cncc(C2CC2)n1  full length recombinant Pim-2 protein (Homo sapiens)               y
12  CC(C)Oc1ccc(-c2ccc3[nH]cc(-c4cncc(O[C@@H]5CCCNC5)n4)c3c2)cc1  full length recombinant Pim-2 protein (Homo sapiens)               y
13  O[C@@H]1CN(c2cncc(-c3n[nH]c4ccc(-c5c(F)cccc5F)cc34)n2)CC[C@@H]1O (single isomer, unassigned) [Example 250]  full length recombinant Pim-2 protein (Homo sapiens)               n
